# measured_target: human αVβ6 integrin on cells (human, UniProt P06756 31-1048; P18564 22-788)
# Sequence (P06756 31-1048, chain 1 of 2): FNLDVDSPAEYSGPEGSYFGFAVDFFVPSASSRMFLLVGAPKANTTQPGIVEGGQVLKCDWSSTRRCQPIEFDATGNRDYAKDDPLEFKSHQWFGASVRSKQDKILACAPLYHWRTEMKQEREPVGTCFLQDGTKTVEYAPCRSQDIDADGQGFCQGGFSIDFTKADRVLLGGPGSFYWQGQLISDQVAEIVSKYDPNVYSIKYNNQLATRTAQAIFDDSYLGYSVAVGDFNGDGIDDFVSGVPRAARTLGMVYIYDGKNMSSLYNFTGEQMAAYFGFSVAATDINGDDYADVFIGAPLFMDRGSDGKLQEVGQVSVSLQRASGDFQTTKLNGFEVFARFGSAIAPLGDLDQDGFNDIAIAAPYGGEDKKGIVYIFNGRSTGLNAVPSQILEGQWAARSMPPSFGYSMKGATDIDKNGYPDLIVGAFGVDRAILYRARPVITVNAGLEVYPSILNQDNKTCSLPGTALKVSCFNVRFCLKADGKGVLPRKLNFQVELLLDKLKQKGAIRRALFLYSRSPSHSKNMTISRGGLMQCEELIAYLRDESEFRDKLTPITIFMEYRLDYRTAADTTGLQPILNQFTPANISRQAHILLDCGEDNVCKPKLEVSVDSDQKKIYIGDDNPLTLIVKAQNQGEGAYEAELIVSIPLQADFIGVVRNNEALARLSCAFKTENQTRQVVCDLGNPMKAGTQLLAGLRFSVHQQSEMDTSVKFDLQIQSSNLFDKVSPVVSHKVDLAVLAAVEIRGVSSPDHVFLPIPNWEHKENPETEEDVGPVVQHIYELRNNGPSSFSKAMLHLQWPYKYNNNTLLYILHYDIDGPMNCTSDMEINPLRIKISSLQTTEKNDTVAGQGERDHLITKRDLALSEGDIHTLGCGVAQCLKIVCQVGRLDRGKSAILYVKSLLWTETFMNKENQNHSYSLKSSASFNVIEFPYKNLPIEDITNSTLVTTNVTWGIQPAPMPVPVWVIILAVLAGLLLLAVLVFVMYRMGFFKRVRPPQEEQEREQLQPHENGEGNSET
# Sequence (P18564 22-788, chain 2 of 2): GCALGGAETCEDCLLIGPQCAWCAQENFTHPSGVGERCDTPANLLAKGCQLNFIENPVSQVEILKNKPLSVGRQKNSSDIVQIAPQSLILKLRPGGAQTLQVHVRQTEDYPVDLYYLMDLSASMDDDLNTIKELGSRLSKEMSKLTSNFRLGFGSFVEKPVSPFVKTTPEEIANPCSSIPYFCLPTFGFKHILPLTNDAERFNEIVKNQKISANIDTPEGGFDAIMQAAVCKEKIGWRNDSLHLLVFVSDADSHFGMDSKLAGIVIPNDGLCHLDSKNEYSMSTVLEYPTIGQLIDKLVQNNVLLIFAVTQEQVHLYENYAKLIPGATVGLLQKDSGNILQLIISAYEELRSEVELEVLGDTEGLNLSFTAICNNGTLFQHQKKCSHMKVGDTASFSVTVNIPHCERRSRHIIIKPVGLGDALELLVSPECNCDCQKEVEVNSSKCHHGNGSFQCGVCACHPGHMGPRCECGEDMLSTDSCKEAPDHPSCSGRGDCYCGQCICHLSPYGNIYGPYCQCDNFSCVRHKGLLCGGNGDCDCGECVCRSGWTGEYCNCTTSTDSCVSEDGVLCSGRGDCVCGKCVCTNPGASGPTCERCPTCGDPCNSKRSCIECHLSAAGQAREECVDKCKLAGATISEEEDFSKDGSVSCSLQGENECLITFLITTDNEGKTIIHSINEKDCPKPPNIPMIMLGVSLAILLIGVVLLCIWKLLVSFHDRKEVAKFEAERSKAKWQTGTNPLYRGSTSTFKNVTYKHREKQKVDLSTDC
# assay_method_text: cell-based or functional assay
endpoint_label: Average % Inhibition (HT29 adhesion to TGFβLAP)
Report as: number unit

binder sc 298 (antibody, V domains shown) VH: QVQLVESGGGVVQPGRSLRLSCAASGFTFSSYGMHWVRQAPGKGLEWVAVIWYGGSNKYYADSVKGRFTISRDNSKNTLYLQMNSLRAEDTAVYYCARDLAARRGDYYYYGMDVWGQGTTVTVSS VL: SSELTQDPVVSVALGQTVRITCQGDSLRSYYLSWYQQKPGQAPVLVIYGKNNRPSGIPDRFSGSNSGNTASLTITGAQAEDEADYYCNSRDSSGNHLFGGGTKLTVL , Average % Inhibition (HT29 adhesion to TGFβLAP) observed: 100%
